# Lookup of reported viability, T/C keyed by entry
# System: 354836-022-R-J1-PDC multicell spheroid viability
# Procedure summary: Anticancer human tumor 354836-022-R-J1-PDC patient-derived head and neck squamous cell carcinoma cell line growth inhibition [PI3K]
# Cond: compound 10 µM; stronger effect = lower value

{"Compound": "C#Cc1c(F)ccc2cc(O)cc(-c3ncc4c(N5CC6CCC(C5)N6)nc(OCC56CCCN5CC(F)C6)nc4c3F)c12 (stereo not drawn)", "Test system": "354836-022-R-J1-PDC multicell spheroid viability", "viability, T/C": "90.5% [middle of 4 runs]"}
{"Compound": "CCCS(=O)(=O)Nc1ccc(F)c(C(=O)c2c[nH]c3ncc(-c4ccc(Cl)cc4)cc23)c1F", "Test system": "354836-022-R-J1-PDC multicell spheroid viability", "viability, T/C": "24.8% [middle of 4 runs]"}
{"Compound": "C=CC(=O)N1CCN(c2nc(=O)n(-c3c(C)ccnc3C(C)C)c3nc(-c4c(O)cccc4F)c(F)cc23)C(C)C1 (stereo not drawn)", "Test system": "354836-022-R-J1-PDC multicell spheroid viability", "viability, T/C": "95.1% [middle of 4 runs]"}

* * *

// reported viability, T/C for each item listed
# Test system: 354836-022-R-J1-PDC multicell spheroid viability
# Procedure summary: Anticancer human tumor 354836-022-R-J1-PDC cell line growth inhibition [PI3K];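 note: spheroids exposed to agents for seven days before the viability read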
# Cond: second compound 0.316 µM; first compound 3.16 µM; stronger effect = lower value
Reported metric: viability, T/C (%)

{"Compound": "CC(Cn1ccc(-c2ccc(C#N)c(Cl)c2)n1)NC(=O)c1cc(C(C)O)[nH]n1 (stereo not given) + COc1c(OCCCN2CCOCC2)ccc2c3n(c(=NC(=O)c4cnc(N)nc4)nc12)CCN3", "Result number": 15.2}
{"Compound": "CC1(C)CCC(CN2CCN(c3ccc(C(=O)NS(=O)(=O)c4ccc(NCC5CCOCC5)c([N+](=O)[O-])c4)c(Oc4cnc5[nH]ccc5c4)c3)CC2)=C(c2ccc(Cl)cc2)C1 + COc1c(OCCCN2CCOCC2)ccc2c3n(c(=NC(=O)c4cnc(N)nc4)nc12)CCN3", "Result number": 7.93}
{"Compound": "CC1(C)CCC(CN2CCN(c3ccc(C(=O)NS(=O)(=O)c4ccc(NCC5CCOCC5)c([N+](=O)[O-])c4)c(Oc4cnc5[nH]ccc5c4)c3)CC2)=C(c2ccc(Cl)cc2)C1 + Cc1nc(NC(=O)N2CCCC2C(N)=O)sc1-c1ccnc(C(C)(C)C(F)(F)F)c1", "Result number": 65.4}
{"Compound": "CC(C)NCC(C(=O)N1CCN(c2ncnc3c2C(C)CC3O)CC1)c1ccc(Cl)cc1 (stereo not given) + Cc1nc(NC(=O)N2CCCC2C(N)=O)sc1-c1ccnc(C(C)(C)C(F)(F)F)c1", "Result number": 16.8}
{"Compound": "C=CC(=O)N1CCN(c2nc(=O)n(-c3c(C)ccnc3C(C)C)c3nc(-c4c(O)cccc4F)c(F)cc23)C(C)C1 (stereo not given) + Cc1nc(NC(=O)N2CCCC2C(N)=O)sc1-c1ccnc(C(C)(C)C(F)(F)F)c1", "Result number": 105}
{"Compound": "C[C@@H](NC(=O)c1ncnc(N)c1Cl)c1ncc(C(=O)Nc2cc(C(F)(F)F)c(Cl)cn2)s1 + Cc1nc(NC(=O)N2CCCC2C(N)=O)sc1-c1ccnc(C(C)(C)C(F)(F)F)c1", "Result number": 89.6}
{"Compound": "C=CC(=O)N1CCN(c2nc(=O)n(-c3c(C)ccnc3C(C)C)c3nc(-c4c(O)cccc4F)c(F)cc23)C(C)C1 (stereo not given) + CC(Nc1ccc2c(c1)OCCn1cc(N3C(=O)OCC3C(F)F)nc1-2)C(N)=O", "Result number": 87.7}
{"Compound": "CCCS(=O)(=O)Nc1ccc(F)c(C(=O)c2c[nH]c3ncc(-c4ccc(Cl)cc4)cc23)c1F + CC(Nc1ccc2c(c1)OCCn1cc(N3C(=O)OCC3C(F)F)nc1-2)C(N)=O", "Result number": 61.8}
{"Compound": "CC(C)NCC(C(=O)N1CCN(c2ncnc3c2C(C)CC3O)CC1)c1ccc(Cl)cc1 (stereo not given) + CC(Nc1ncnc2nc[nH]c12)c1cc2cccc(Cl)c2c(=O)n1-c1ccccc1", "Result number": 7.64}
{"Compound": "Cn1nccc1Nc1nccc(-c2ccn(C(CO)c3ccc(Cl)c(F)c3)c(=O)c2)n1 (stereo not given) + Cc1nc(NC(=O)N2CCCC2C(N)=O)sc1-c1ccnc(C(C)(C)C(F)(F)F)c1", "Result number": 108}
{"Compound": "Cn1ncc(Cl)c1-c1cc(C(=O)NC(CN)Cc2cccc(F)c2)sc1Cl (stereo not given) + CC(Nc1ccc2c(c1)OCCn1cc(N3C(=O)OCC3C(F)F)nc1-2)C(N)=O", "Result number": 12.9}
{"Compound": "C=CC(=O)N1CCN(c2nc(=O)n(-c3c(C)ccnc3C(C)C)c3nc(-c4c(O)cccc4F)c(F)cc23)C(C)C1 (stereo not given) + COc1c(OCCCN2CCOCC2)ccc2c3n(c(=NC(=O)c4cnc(N)nc4)nc12)CCN3", "Result number": 25.9}
{"Compound": "C[C@@H](NC(=O)c1ncnc(N)c1Cl)c1ncc(C(=O)Nc2cc(C(F)(F)F)c(Cl)cn2)s1 + CC(Nc1ncnc2nc[nH]c12)c1cc2cccc(Cl)c2c(=O)n1-c1ccccc1", "Result number": 87.9}
{"Compound": "C[C@@H](NC(=O)c1ncnc(N)c1Cl)c1ncc(C(=O)Nc2cc(C(F)(F)F)c(Cl)cn2)s1 + CC(Nc1ccc2c(c1)OCCn1cc(N3C(=O)OCC3C(F)F)nc1-2)C(N)=O", "Result number": 88.1}
{"Compound": "CNC(=O)c1ccc(N2C(=S)N(c3ccc(C#N)c(C(F)(F)F)c3)C(=O)C2(C)C)cc1F + CC(Nc1ccc2c(c1)OCCn1cc(N3C(=O)OCC3C(F)F)nc1-2)C(N)=O", "Result number": 77.6}
{"Compound": "Cn1nccc1Nc1nccc(-c2ccn(C(CO)c3ccc(Cl)c(F)c3)c(=O)c2)n1 (stereo not given) + CC(Nc1ccc2c(c1)OCCn1cc(N3C(=O)OCC3C(F)F)nc1-2)C(N)=O", "Result number": 71.5}
{"Compound": "CNC(=O)c1ccc(N2C(=S)N(c3ccc(C#N)c(C(F)(F)F)c3)C(=O)C2(C)C)cc1F + COc1c(OCCCN2CCOCC2)ccc2c3n(c(=NC(=O)c4cnc(N)nc4)nc12)CCN3", "Result number": 14.5}
{"Compound": "Cn1ncc(Cl)c1-c1cc(C(=O)NC(CN)Cc2cccc(F)c2)sc1Cl (stereo not given) + COc1c(OCCCN2CCOCC2)ccc2c3n(c(=NC(=O)c4cnc(N)nc4)nc12)CCN3", "Result number": 3.48}
{"Compound": "CC1(C)CCC(CN2CCN(c3ccc(C(=O)NS(=O)(=O)c4ccc(NCC5CCOCC5)c([N+](=O)[O-])c4)c(Oc4cnc5[nH]ccc5c4)c3)CC2)=C(c2ccc(Cl)cc2)C1 + CC(Nc1ncnc2nc[nH]c12)c1cc2cccc(Cl)c2c(=O)n1-c1ccccc1", "Result number": 64.1}
{"Compound": "Cn1nccc1Nc1nccc(-c2ccn(C(CO)c3ccc(Cl)c(F)c3)c(=O)c2)n1 (stereo not given) + CC(Nc1ncnc2nc[nH]c12)c1cc2cccc(Cl)c2c(=O)n1-c1ccccc1", "Result number": 100}
